Values compiled from paper PMC2009897.

Tested on: V79 Chinese hamster cells
Assay: Cytotoxicity (plating efficiency) in V79 Chinese hamster cells
Assay type: cell-based
Settings: 5.0 µg/ml, 3 h, Table I
Response key: satisfied means Plating efficiency (%) in V79 cells >= 70%; not satisfied means Plating efficiency (%) in V79 cells < 70%.

Assess whether reported Plating efficiency (%) in V79 cells for O[C@@H]1C=Cc2cc3c(ccc4ccccc43)cc2[C@H]1O (relative stereo) [trans-8,9-Dihydro-8,9-dihydroxy-BA, trans-8,9-dihydro-8,9-dihydroxy-BA] sits at 70% or higher.
not satisfied

Evaluate O[C@@H]1C=Cc2ccc3cc4ccccc4cc3c2[C@H]1O (relative stereo) [trans-1,2-Dihydro-1,2-dihydroxy BA, trans-1,2-Dihydro-1,2-dihydroxy-BA] : Plating efficiency (%) in V79 cells at minimum 70%?
satisfied

Evaluate Cc1c2c(c(C)c3ccccc13)[C@@H](O)[C@H](O)c1ccccc1-2 (relative stereo) [trans-5,6-Dihydro-5,6-dihydroxy-DMBA, trans-5,6-dihydro-5,6-dihydroxy-DMBA] : Plating efficiency (%) in V79 cells at minimum 70%?
satisfied

Determine whether measured Plating efficiency (%) in V79 cells meets or exceeds 70% for O[C@@H]1c2ccccc2-c2cc3ccccc3cc2[C@H]1O (relative stereo) [trans-5,6-Dihydro-5,6-dihydroxy BA, trans-5,6-Dihydro-5,6-dihydroxy-BA]
satisfied

Determine whether this compound has Plating efficiency (%) in V79 cells no lower than 70%: O[C@@H]1C=Cc2c(ccc3cc4ccccc4cc23)[C@H]1O (relative stereo) [trans-3,4-Dihydro-3,4-dihydroxy BA, trans-3,4-dihydro-3,4-dihydroxy-BA]
satisfied
